# measurement.target: Human recombinant MMP-13 (Homo sapiens, UniProt P45452)
# Construct: purchased PanVera Corporation (Madison, Wis.)
# experiment.notes: Inhibition of MMP-13 (fluorogenic peptide cleavage)
# Format: biochemical
# measurement.setup: in vitro
Items are presented alongside their recorded IC50.
reported.endpoint: IC50 (nM)

O=C(CS(=O)(=O)N1CCC(c2ccc(-c3ccccc3)cc2)CC1)NO : 25
Cc1cc(C2=CCN(S(=O)(=O)CC(=O)NO)CC2)ccc1-c1ccccc1 : 28

* * *

Items are presented alongside their recorded melting point.
reported.endpoint: melting point

COCCOc1cccc(-c2ccc(C3CCN(S(=O)(=O)C(C)(C)C(=O)NO)CC3)cc2C)c1 : 155 to 156 °C
O=C(CS(=O)(=O)N1CC=C(c2ccc(-c3ccccc3)cc2)CC1)NO : 216 to 218 °C
O=C(NO)C(Cc1ccccc1)S(=O)(=O)N1CC=C(c2ccc(-c3ccccc3)cc2)CC1 (racemic) : 202 to 205 °C
Cc1cc(C2=CCN(S(=O)(=O)C(C)(C)C(=O)NO)CC2)ccc1-c1cnc2ccccc2c1 : 158 to 160 °C
Cc1cc(C2=CCN(S(=O)(=O)CC(=O)NO)CC2)ccc1-c1ccc2c(c1)OCO2 : 165 to 167 °C
COc1cc(C2=CCN(S(=O)(=O)C(C)(C)C(=O)NO)CC2)ccc1-c1ccccc1 : 156 to 158 °C
CCOc1cccc(-c2ccc(C3=CCN(S(=O)(=O)C4(C(=O)NO)CCOCC4)CC3)cc2C)c1 : 152 to 154 °C
COCCC(C(=O)NO)S(=O)(=O)N1CC=C(c2ccc(-c3ccccc3)c(C)c2)CC1 (racemic) : 135 to 136 °C
Cc1cc(C2=CCN(S(=O)(=O)CC(=O)NO)CC2)ccc1-c1ccc2c(c1)CCC2 : 149 to 152 °C
CCOc1cccc(-c2ccc(C3CCN(S(=O)(=O)C(C)(C)C(=O)NO)CC3)cc2C)c1 : 172 to 174 °C

* * *

reported.endpoint: melting point

CCOc1cccc(-c2ccc(C3CCN(S(=O)(=O)CC(=O)NO)CC3)cc2C)c1 [Example 31] : 179 to 180 °C
Cc1cc(C2=CCN(S(=O)(=O)CC(=O)NO)CC2)ccc1-c1cccnc1 [Example 34] : 132 to 136 °C
Cc1cc(C2CCN(S(=O)(=O)C(C)(C)C(=O)NO)CC2)ccc1-c1ccc2c(c1)nc(C)n2C [Example 63] : 213 to 215 °C
O=C(CS(=O)(=O)N1CCC(c2ccc(-c3ccccc3)cc2)CC1)NO [Example 3] : 200 to 201 °C
COCCOc1cccc(-c2ccc(C3=CCN(S(=O)(=O)CC(=O)NO)CC3)cc2C)c1 [Example 43] : 158 to 160 °C
COc1cccc(-c2ccc(C3CCN(S(=O)(=O)C4(C(=O)NO)Cc5ccccc5C4)CC3)cc2C)c1 [Example 50] : 199 to 202 °C
Cc1cc(C2=CCN(S(=O)(=O)CC(=O)NO)CC2)ccc1-c1ccc(F)c(Cl)c1 [Example 55] : 181 to 183 °C
COc1cccc(-c2ccc(C3=CCN(S(=O)(=O)CC(=O)NO)CC3)cc2C)c1 [Example 22] : 162 to 165 °C

* * *

# measurement.target: MMP-3 (Homo sapiens, UniProt P08254)
# Construct: Catalytic domains MMP-2, MMP-3 and MMP-9 were prepared in Pfizer Central Research laboratories; made in house
# Sequence (P08254 100-272 limits assumed): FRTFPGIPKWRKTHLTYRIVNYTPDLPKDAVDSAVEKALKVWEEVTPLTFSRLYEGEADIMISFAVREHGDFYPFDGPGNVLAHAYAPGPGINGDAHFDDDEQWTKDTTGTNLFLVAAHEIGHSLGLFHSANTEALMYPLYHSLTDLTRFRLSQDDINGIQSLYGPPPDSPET
# experiment.notes: Inhibition of MMP-3 (fluorogenic peptide cleavage)
# Assay type: biochemical
# measurement.setup: in vitro, catalytic domain MMP-3
reported.endpoint: IC50 (nM)

Cc1cc(C2=CCN(S(=O)(=O)C(C)(C)C(=O)NO)CC2)ccc1-c1cnc2ccccc2c1 [Example 40] : 18
CCOc1cccc(-c2ccc(C3=CCN(S(=O)(=O)C4(C(=O)NO)CCOCC4)CC3)cc2C)c1 [Example 28] : 24
Cc1cc(C2=CCN(S(=O)(=O)CC(=O)NO)CC2)ccc1-c1ccccc1 [Example 2] : 16
O=C(CS(=O)(=O)N1CCC(c2ccc(-c3ccccc3)cc2)CC1)NO [Example 3] : 26
